- EXPERIMENTAL_TARGET: CYP2C19 (Homo sapiens, UniProt P33261)
- Sequence (P33261 whole entry): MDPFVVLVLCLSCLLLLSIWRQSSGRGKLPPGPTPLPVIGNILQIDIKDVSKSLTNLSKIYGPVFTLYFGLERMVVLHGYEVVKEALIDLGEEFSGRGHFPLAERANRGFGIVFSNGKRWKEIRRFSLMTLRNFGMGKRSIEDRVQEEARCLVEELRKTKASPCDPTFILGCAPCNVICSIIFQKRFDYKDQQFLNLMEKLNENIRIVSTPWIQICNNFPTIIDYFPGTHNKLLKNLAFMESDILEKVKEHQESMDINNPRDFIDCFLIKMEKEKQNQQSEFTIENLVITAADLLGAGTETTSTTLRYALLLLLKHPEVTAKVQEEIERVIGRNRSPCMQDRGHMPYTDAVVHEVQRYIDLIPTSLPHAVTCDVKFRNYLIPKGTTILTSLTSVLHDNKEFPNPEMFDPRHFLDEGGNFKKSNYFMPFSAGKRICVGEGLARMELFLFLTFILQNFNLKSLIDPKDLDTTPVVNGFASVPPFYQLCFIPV
- TEST_SUMMARY: biochemical
- ASSAY_CONDITIONS: human, microsomes
pIC50: −log10 of the molar value.
MEASURED_ATTRIBUTE: pIC50

Lookup: Query for CYP2C19 (Homo sapiens, UniProt P33261): what pIC50 does the record show for CC(C)(CCCCOCCCCC(C)(C)C(=O)O)C(=O)O ?
Found: < 2.82

====

- EXPERIMENTAL_TARGET: CYP1A2 (Homo sapiens, UniProt P05177)
- Sequence (P05177 whole entry): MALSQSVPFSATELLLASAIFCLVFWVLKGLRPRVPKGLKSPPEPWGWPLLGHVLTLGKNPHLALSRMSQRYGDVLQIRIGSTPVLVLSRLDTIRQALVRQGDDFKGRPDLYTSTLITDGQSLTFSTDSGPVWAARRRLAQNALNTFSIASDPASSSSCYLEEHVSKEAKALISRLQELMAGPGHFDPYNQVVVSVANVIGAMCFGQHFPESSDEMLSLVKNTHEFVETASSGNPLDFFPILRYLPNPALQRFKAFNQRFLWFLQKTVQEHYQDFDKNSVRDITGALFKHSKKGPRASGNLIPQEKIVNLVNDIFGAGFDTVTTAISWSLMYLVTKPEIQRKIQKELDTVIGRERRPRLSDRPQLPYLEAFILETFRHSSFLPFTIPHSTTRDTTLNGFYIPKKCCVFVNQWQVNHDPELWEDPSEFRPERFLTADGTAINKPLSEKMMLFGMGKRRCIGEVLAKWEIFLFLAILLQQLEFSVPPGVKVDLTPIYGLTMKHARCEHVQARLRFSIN
- TEST_SUMMARY: biochemical
pIC50: −log10 of the molar value.
MEASURED_ATTRIBUTE: pIC50

Lookup: Report pIC50 for CC(C)(CCCCOCCCCC(C)(C)C(=O)O)C(=O)O please.
Found: < 2.82
